- measured target: human bradykinin 1 receptor (B1R) (Homo sapiens)
- Construct: expressed in transfected cells; host or cells: CHO K1 cells
- Sequence (P46663 whole entry): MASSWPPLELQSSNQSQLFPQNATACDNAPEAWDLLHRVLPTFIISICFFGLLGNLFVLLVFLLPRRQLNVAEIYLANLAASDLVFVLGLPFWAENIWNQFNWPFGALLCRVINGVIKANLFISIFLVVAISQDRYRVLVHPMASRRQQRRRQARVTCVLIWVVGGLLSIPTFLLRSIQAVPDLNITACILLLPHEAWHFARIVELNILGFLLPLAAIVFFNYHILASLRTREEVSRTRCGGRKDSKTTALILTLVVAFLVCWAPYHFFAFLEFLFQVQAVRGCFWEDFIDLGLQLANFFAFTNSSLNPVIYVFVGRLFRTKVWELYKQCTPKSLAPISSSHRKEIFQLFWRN
- measurement description: Functional investigation on the human bradykinin 1 receptor (B1R), Ca2+ FLIPR assay in CHO K1 hB1R cells
- Assay type: cell-based
- run conditions: CHO-K1, B1R antagonism human; test substance 10 μM; Ca2+ FLIPR, CHO K1 hB1R cells; read-out: B1R Ant. h [10 μM] % Inhibition
Entries and their inhibition at 10 µM values follow.
Write it as a number; the unit % goes unstated.

# annotated cases, reported inhibition at 10 µM shown
COc1cc(C)c(S(=O)(=O)N2CCC(OCC(=O)NCC3CCC(C(c4ccccc4)N(C)C)CC3)C2)c(C)c1 (stereo not drawn); 94
CN(C)C(CCc1ccccc1)C1CCC(NC(=O)CNC(=O)c2nc(-c3cccs3)no2)CC1 (stereo not drawn); 76
CN(C)C(c1cccs1)C1CCC(CNC(=O)COCC2CCCN(S(=O)(=O)c3ccccc3)C2)CC1 (stereo not drawn); 0
CN(C)C(c1cccc(F)c1)C1CCC(CCNC(=O)COCCN(C)S(=O)(=O)c2c(Cl)cc(Cl)cc2Cl)CC1 (stereo not drawn); 103
COc1cc(C)c(S(=O)(=O)N2CCCC2COCC(=O)NCC2CCC(C(CCc3ccccc3)N3CCOCC3)CC2)c(C)c1 (stereo not drawn); 103

# context switch: different compound, same inhibition at 10 µM
Request: // map CN(C)C(c1cccs1)C1CCC(CCNC(=O)COC2CCN(S(=O)(=O)c3ccc(Cl)cc3Cl)C2)CC1 (stereo not drawn) to recorded inhibition at 10 µM (system: human bradykinin 1 receptor (B1R) (Homo sapiens))
Result: 88
